Measured IC50, human fluorogenic collagen assay values are reported for all entries that follow.
- Assay Target: activated human MMP13 (human, UniProt P45452 104-471)
- Procedure Details: cell-based or functional assay
Write it as a number; the unit nM goes unstated.

>  <Binder>
C0101PMP513C04 (VHH) VHH: DVQLVESGGGLVQPGGSLRLSCAASGRTFSRYVMGWFRQAPGKEREFVAAINWSSGSTYYADSVKGRFTISRDNSKNTVYLQMNSLRPEDTAVYYCAADRRVYYDTYPNLRGYDYWGQGTLVTVSS

>  <IC50, human fluorogenic collagen assay [nM]>
18.1

$$$$
>  <Binder>
C0101PMP080A01 (VHH) VHH: EVQLVESGGGLVQPGGSLRLSCAASGFTLAYYSIGWFRQAPGKEREGVSCISSGIDGSTYYADSVKGRFTISRDNAKNTMYLQMNNLKPEDTGVYYCAADPSHYYSEYDCGYYGMDYWGKGTLVTVSS

>  <IC50, human fluorogenic collagen assay [nM]>
10.8

$$$$
>  <Binder>
C0101PMP525C04 (VHH, Profile 2 Nanobody) VHH: DVQLVESGGGLVQPGGSLRLSCAGSGSIFSGNAMGWYRQAPGKQRELVAAITSGGVTNYADSVKGRFTISRDNSKNTVYLQMNSLRPEDTAVYYCAADIRYPTGLVGDYWGQGTLVTVSS

>  <IC50, human fluorogenic collagen assay [nM]>
90.5

$$$$

Field: next binder
What does the data say about its IC50, human fluorogenic collagen assay? Entry: C0101PMP520B06 (VHH, Profile 2 Nanobody) VHH: DVQLVESGGGLVQPGGSLRLSCAASGRTFSSYAMGWFRQAPGKEREFVAAISWGGGSTYYSDSVKGRFTISRDNSKNTVYLQMNSLRPEDTAVYYCTAALGSTGSGSTPVPEYRYWGQGTLVTVSS
27.5
